Data provenance is ChEMBL document CHEMBL1127529.

assay: Deoxyribose degradation assay as hydroxy radical formation; format: functional
We begin with a simple list: items and their reported DD (uM of MDA mM-1).
API doc: respond with a numeric literal and nothing else, no unit.

[
  {
    "sample-smiles": "O=C1c2c(O)cccc2Cc2cc(Cc3ccc(O)cc3)cc(O)c21",
    "quantitative-readout": 0.27
  }
]

Please examine the following record next.
Ask: Consider the compound shown here: `O=C1c2c(O)cccc2Cc2cc(Cc3ccc(O)cc3O)cc(O)c21` What is its recorded DD (uM of MDA mM-1)?
Reply: 3.26

###

molecular target: Arachidonate 5-lipoxygenase (Bos taurus); test: Inhibition of 5-lipoxygenase in bovine polymorphonuclear leukocytes
Sequence (Q9BEG3 whole entry): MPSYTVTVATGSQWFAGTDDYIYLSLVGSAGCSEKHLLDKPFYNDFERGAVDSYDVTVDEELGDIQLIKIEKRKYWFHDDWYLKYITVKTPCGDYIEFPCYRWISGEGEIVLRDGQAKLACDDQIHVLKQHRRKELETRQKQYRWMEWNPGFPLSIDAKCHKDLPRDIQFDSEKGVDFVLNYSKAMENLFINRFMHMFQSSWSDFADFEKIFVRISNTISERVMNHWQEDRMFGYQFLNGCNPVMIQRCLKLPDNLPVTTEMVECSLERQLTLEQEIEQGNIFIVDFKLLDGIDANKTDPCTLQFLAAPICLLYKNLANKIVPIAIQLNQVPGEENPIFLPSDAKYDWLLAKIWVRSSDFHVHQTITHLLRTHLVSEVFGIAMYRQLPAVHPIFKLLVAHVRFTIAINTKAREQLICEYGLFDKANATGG
measured-metric: IC50

[
  {
    "sample-smiles": "O=C1c2c(O)cccc2Cc2ccc(Cc3ccc(O)c(O)c3)c(O)c21",
    "result": "4 µM"
  },
  {
    "sample-smiles": "COc1ccc(Cc2cc(O)c3c(c2)Cc2cccc(O)c2C3=O)c(OC)c1",
    "result": "> 30 µM"
  },
  {
    "sample-smiles": "O=C1c2c(O)cccc2Cc2ccc(Cc3ccccc3O)c(O)c21",
    "result": "5 µM"
  },
  {
    "sample-smiles": "O=C1c2c(O)cccc2Cc2ccc(Cc3ccc(C(F)(F)F)cc3)c(O)c21",
    "result": "> 30 µM"
  }
]

Ask: Write down the reported IC50 of `Cc1ccc(C(=O)c2cc(O)c3c(c2)Cc2cccc(O)c2C3=O)cc1` , test system: Arachidonate 5-lipoxygenase (Bos taurus).
Reply: > 30 µM

Ask: Write down the reported IC50 of `COc1ccc(OC)c(Cc2cc(O)c3c(c2)Cc2cccc(O)c2C3=O)c1` , test system: Arachidonate 5-lipoxygenase (Bos taurus).
Reply: > 30 µM

Ask: Write down the reported IC50 of `COc1ccc(C(=O)c2cc(O)c3c(c2)Cc2cccc(O)c2C3=O)cc1` , test system: Arachidonate 5-lipoxygenase (Bos taurus).
Reply: > 30 µM

Ask: Write down the reported IC50 of `COc1ccc(CCCc2ccc3c(c2O)C(=O)c2c(O)cccc2C3)cc1` , test system: Arachidonate 5-lipoxygenase (Bos taurus).
Reply: 30 µM

Ask: Write down the reported IC50 of `O=C1c2c(O)cccc2Cc2cc(Cc3ccccc3)cc(O)c21` , test system: Arachidonate 5-lipoxygenase (Bos taurus).
Reply: > 30 µM

Ask: Write down the reported IC50 of `O=C(O)c1ccccc1Cc1ccc2c(c1O)C(=O)c1c(O)cccc1C2` , test system: Arachidonate 5-lipoxygenase (Bos taurus).
Reply: 4 µM

Ask: Write down the reported IC50 of `O=C1c2c(O)cccc2Cc2ccc(Cc3ccccc3)c(O)c21` , test system: Arachidonate 5-lipoxygenase (Bos taurus).
Reply: > 30 µM

Ask: Write down the reported IC50 of `O=C1c2c(O)cccc2Cc2ccc(CCCc3ccc(O)cc3)c(O)c21` , test system: Arachidonate 5-lipoxygenase (Bos taurus).
Reply: 2 µM

Ask: Write down the reported IC50 of `COc1ccccc1Cc1ccc2c(c1O)C(=O)c1c(O)cccc1C2` , test system: Arachidonate 5-lipoxygenase (Bos taurus).
Reply: > 30 µM
